# Tested on: RARa:RXR (NR concentration 270 nM, RXRa partner concentration 90 nM)
# assay.remarks: PBM binding z-score (relative to random genomic background probes); higher = stronger binding; sequences stand for … in GC…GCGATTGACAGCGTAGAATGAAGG
Listed sequences paired with reported PBM binding z-score
value.kind: PBM binding z-score

sequence_data=CGAACTAGGCCAGAACAGGACAGTGAAGGATGAT recorded_result=0.379
sequence_data=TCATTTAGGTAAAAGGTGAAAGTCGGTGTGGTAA recorded_result=2.74
sequence_data=AGAACGAGGGCAAGGAGTTGATAGCACGGGTGGC recorded_result=0.14
sequence_data=CCGGCTGGGGCATAAGGTTACCATAAGCCAGCCC recorded_result=1.23
sequence_data=TTACCAAGGTGAGCTGAGGCCGTTGATCCAACTC recorded_result=1.15
sequence_data=ATATGTAGGGTACATCCGGGTCATTCAGGCTATG recorded_result=3.12

* * *

# System: PXR:RXRa (NR concentration 270 nM, RXRa partner concentration 90 nM)
# assay.remarks: PBM binding z-score (relative to random genomic background probes); higher = stronger binding; sequences stand for … in GC…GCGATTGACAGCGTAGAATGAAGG
Classification field: rule met = PBM binding z-score at or over 1; rule not met = PBM binding z-score under 1.

sequence_data=CAAACTAGGTCCCCGGAAGGTCAAAGTCCGCATG class_assignment="rule met"
sequence_data=CGACCTAGGTCAGAACAGGACAGTGAAGGATGAT class_assignment="rule met"
sequence_data=CAGCCTAGGTCAGGGCCAGTACAGGAGGAACGTT class_assignment="rule not met"
sequence_data=TTACCATGGTGAGCTGAGGTCGTTGATCCAACTC class_assignment="rule met"
sequence_data=TCTTGTATATCAAGCAGGTTAAGAAAGCCTGAGT class_assignment="rule not met"
sequence_data=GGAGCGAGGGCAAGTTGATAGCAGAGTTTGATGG class_assignment="rule not met"
sequence_data=TCTGGTTGGTCAAAGGTCACACACTCGAAATGCG class_assignment="rule met"
sequence_data=CGTCAAAGTGCAACTAAGGTAACGTAAAGCACGC class_assignment="rule met"
sequence_data=CAAACTAGGTAACCGGAAGGTCAAAGTCCGCATG class_assignment="rule met"
sequence_data=ATCTCTAGGTAAACATAGTTCAGTGAATGCAAAT class_assignment="rule met"
sequence_data=AATACAGGGTCATCGTAGGACAGAGTACGCACAG class_assignment="rule met"
sequence_data=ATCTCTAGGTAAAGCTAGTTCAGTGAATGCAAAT class_assignment="rule met"

* * *

Listed sequences paired with reported PBM binding z-score
# Tested on: PPARg:RXRa (NR concentration 180 nM, RXRa partner concentration 90 nM)
# assay.remarks: PBM binding z-score (relative to random genomic background probes); higher = stronger binding; sequences stand for … in GC…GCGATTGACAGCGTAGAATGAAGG
value.kind: PBM binding z-score

sequence_data=CGAACGAGGGCACGAGTTGATAGCAAATGCCGAT value_kind="PBM binding z-score" recorded_result=2.4
sequence_data=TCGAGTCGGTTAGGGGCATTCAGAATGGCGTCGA value_kind="PBM binding z-score" recorded_result=-0.446
sequence_data=TCATATAGGTAGAGGTGAAAGTCGAACGATATGA value_kind="PBM binding z-score" recorded_result=1.96
sequence_data=ATATGTAGGTTATCGGGTCCTTCAGTTTGCGCAT value_kind="PBM binding z-score" recorded_result=5.01
sequence_data=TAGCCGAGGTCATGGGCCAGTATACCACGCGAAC value_kind="PBM binding z-score" recorded_result=7.45
sequence_data=CCTGCTAGGCCAATGGTCAGCTAAAGCAGCTCGC value_kind="PBM binding z-score" recorded_result=0.706
sequence_data=TGTTGTAGATCAGCAGGTTAAGAAAGCTGGCCAA value_kind="PBM binding z-score" recorded_result=-0.588
sequence_data=CGTCCAAGGTCAAGGTCAGTGCAAGAGACTCGAA value_kind="PBM binding z-score" recorded_result=6.07
sequence_data=ATCTGTAGGTAAGACTCAGTTCAGTGAAGAACGC value_kind="PBM binding z-score" recorded_result=0.00745
sequence_data=GGGACTGGGGCATCAGCAGGTTACCATAACTTAA value_kind="PBM binding z-score" recorded_result=3.27
sequence_data=ATCTCTAGGTAAAGATAGTTCGGTGAATGCAAAT value_kind="PBM binding z-score" recorded_result=0.266
sequence_data=CCTTACGGGTCAAGTTTATAGCACGGGTGGTACG value_kind="PBM binding z-score" recorded_result=4.2

* * *

# Test system: FXR:RXRa (NR concentration 270 nM, RXRa partner concentration 90 nM)
# assay.remarks: PBM binding z-score (relative to random genomic background probes); higher = stronger binding; sequences stand for … in GC…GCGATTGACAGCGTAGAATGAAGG
Classification field: class 1 = PBM binding z-score at or over 0.7; class 0 = PBM binding z-score under 0.7.

sequence_data=GATACAGGGTCTGCTAGAGGCCAGAGTATGGAAA target_desc="FXR:RXRa (NR concentration 270 nM, RXRa partner concentration 90 nM)" class_assignment="class 0"
sequence_data=GCGACTGGGGCATCAGCGGGTTACCATAACTTAA target_desc="FXR:RXRa (NR concentration 270 nM, RXRa partner concentration 90 nM)" class_assignment="class 0"
sequence_data=AGAATGTGGTTATTAAGATCAGGGAATTGCGGTC target_desc="FXR:RXRa (NR concentration 270 nM, RXRa partner concentration 90 nM)" class_assignment="class 0"
sequence_data=AGAATGACGTTACCAAAGATCAGGGAAACGCTTG target_desc="FXR:RXRa (NR concentration 270 nM, RXRa partner concentration 90 nM)" class_assignment="class 0"
sequence_data=GCTAGTTGGTCACTAAAAGGTCACACACCGGTCG target_desc="FXR:RXRa (NR concentration 270 nM, RXRa partner concentration 90 nM)" class_assignment="class 1"
sequence_data=TGTCAAAGTTCAAAGGTACCGTAAGTATCCACAC target_desc="FXR:RXRa (NR concentration 270 nM, RXRa partner concentration 90 nM)" class_assignment="class 1"
sequence_data=ATCTATAGGTAAAGTTCAGTGAAAGATCGATAGA target_desc="FXR:RXRa (NR concentration 270 nM, RXRa partner concentration 90 nM)" class_assignment="class 1"
sequence_data=ATATGTAGGTTATCGTGTCATTCAGTTTGCGCAT target_desc="FXR:RXRa (NR concentration 270 nM, RXRa partner concentration 90 nM)" class_assignment="class 1"
sequence_data=TAGCCTAGGTCAGATCGGGCCGGTATACGCTATA target_desc="FXR:RXRa (NR concentration 270 nM, RXRa partner concentration 90 nM)" class_assignment="class 1"
sequence_data=TAGCCTAGGTCATTCAGGGGCCAGTATCGAAAGC target_desc="FXR:RXRa (NR concentration 270 nM, RXRa partner concentration 90 nM)" class_assignment="class 1"
sequence_data=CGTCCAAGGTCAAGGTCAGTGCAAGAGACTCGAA target_desc="FXR:RXRa (NR concentration 270 nM, RXRa partner concentration 90 nM)" class_assignment="class 1"
sequence_data=TCGAATAGGTTACCAATGGGGCATTCAGCTTTCT target_desc="FXR:RXRa (NR concentration 270 nM, RXRa partner concentration 90 nM)" class_assignment="class 0"

* * *

# Tested on: PPARg:RXRa 90nM:30nM, anti-RXR (NR concentration 90 nM, RXRa partner concentration 30 nM)
# assay.remarks: PBM binding z-score (relative to random genomic background probes); higher = stronger binding; sequences stand for … in GC…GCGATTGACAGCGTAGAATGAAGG
Listed sequences paired with reported PBM binding z-score
value.kind: PBM binding z-score

sequence_data=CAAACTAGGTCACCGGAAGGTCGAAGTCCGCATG target_desc="PPARg:RXRa 90nM:30nM, anti-RXR (NR concentration 90 nM, RXRa partner concentration 30 nM)" recorded_result=7.33
sequence_data=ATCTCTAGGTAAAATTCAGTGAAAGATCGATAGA target_desc="PPARg:RXRa 90nM:30nM, anti-RXR (NR concentration 90 nM, RXRa partner concentration 30 nM)" recorded_result=0.917
sequence_data=TCTATTAGTTGAAGGGCAGCCGACGAGTCCGTTT target_desc="PPARg:RXRa 90nM:30nM, anti-RXR (NR concentration 90 nM, RXRa partner concentration 30 nM)" recorded_result=2.81
sequence_data=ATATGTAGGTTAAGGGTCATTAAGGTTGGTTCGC target_desc="PPARg:RXRa 90nM:30nM, anti-RXR (NR concentration 90 nM, RXRa partner concentration 30 nM)" recorded_result=10.7
sequence_data=TCTTGTAGATCAGAGGTTAAGAAAGCCGAAGCCT target_desc="PPARg:RXRa 90nM:30nM, anti-RXR (NR concentration 90 nM, RXRa partner concentration 30 nM)" recorded_result=5.63
sequence_data=TCATATAGGTAAATGCTTGGTGAAAGTCCGATCT target_desc="PPARg:RXRa 90nM:30nM, anti-RXR (NR concentration 90 nM, RXRa partner concentration 30 nM)" recorded_result=2.72
sequence_data=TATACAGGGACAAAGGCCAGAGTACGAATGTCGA target_desc="PPARg:RXRa 90nM:30nM, anti-RXR (NR concentration 90 nM, RXRa partner concentration 30 nM)" recorded_result=3.3
sequence_data=ATCTCTAGGTACCCAAGTTCAGTGAATGCCGAAC target_desc="PPARg:RXRa 90nM:30nM, anti-RXR (NR concentration 90 nM, RXRa partner concentration 30 nM)" recorded_result=0.493
sequence_data=GCGTATAGGTAATACAAGGTGAAAGTCCGATTGT target_desc="PPARg:RXRa 90nM:30nM, anti-RXR (NR concentration 90 nM, RXRa partner concentration 30 nM)" recorded_result=0.925
sequence_data=GCTTACGGGGCAAAGGTTATAGCATGAATAGAAT target_desc="PPARg:RXRa 90nM:30nM, anti-RXR (NR concentration 90 nM, RXRa partner concentration 30 nM)" recorded_result=9.06
sequence_data=TCAGACAGGTGCAGGTAACTCAGGTACGCAGTCG target_desc="PPARg:RXRa 90nM:30nM, anti-RXR (NR concentration 90 nM, RXRa partner concentration 30 nM)" recorded_result=2.35
sequence_data=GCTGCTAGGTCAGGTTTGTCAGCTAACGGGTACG target_desc="PPARg:RXRa 90nM:30nM, anti-RXR (NR concentration 90 nM, RXRa partner concentration 30 nM)" recorded_result=0.389
